# System: yellow nutsedge
# Assay Comment: Test C postemergence
# Assay type: in vivo, Cyperus esculentus
# Run Conditions: Cyperus, post-emergence; 16 g ai/ha, postemergence; 0 is no effect, 100 is complete control; read-out: Plant response rating (0 to 100), Nutsedge, Yellow
Recorded Endpoint: pest or weed control at 16 g/ha (%)
Numbers only, in %.

1. Fc1cccc(Oc2ncc(Cl)cn2)c1-n1cc(C(F)F)nn1 :: 10
2. N#Cc1cccc(Oc2ncc(Cl)cn2)c1-n1cc(OCC(F)(F)F)cn1 :: 10
3. N#Cc1cccc(Oc2ncc(Cl)cn2)c1-n1cc(C(F)F)cn1 :: 5

Need pest or weed control at 16 g/ha, item "Clc1cnc(Oc2ccccc2-n2cc(C3CC3)nn2)nc1"
5
